TARGET_ENTITY: T1, HLA-A*0201 loaded with the Carcinoembryonic antigen (CEA)-derived … peptide (biotin on the C-terminal biotinylation tag)
T1 construct: Soluble, biotinylated, immobilised on a streptavidin chip
TEST_SUMMARY: Biacore SPR
The following binders are listed with their measured Kd values.

// solved cases for Kd follow
>>> experimental_result("SEQ ID NO 15 (receptor, mutated soluble two domain ILT-2) MAQHLPKPTLWAEPGSVITMDQPVTLRCQGGQETQEYRLYREKKTAPWITRIPQELVKKGQFPIPSITWEHAGRYRCYYGSDTSQWSASSDPLELVVTGVYIKPTLSAQPSPVVNSGGNVTLQCDSQVSFDGFILCKEGEDEHPQCLNSQPHARGSSRAIFSVGPVSPSRRWWYRCYAYDSNSPYEWSLPSDLLELDVDG")
"≤ 1000 nM"
>>> experimental_result("SEQ ID NO 106 (receptor, mutated soluble two domain ILT-2) MGHLPKPTLWAEPGSVITLGQPVTLRCQGGQETQEYRLYREKKTAPWITRIPQELVKKGQFPIPSITWEHAGRYRCYYGSDTSQWSASSDPLELVVTGIYLAPTLSAQPSPVVNSGGNVTLQCDSQVAFDGFILCKEGEDEHPQCLNSQPHARGSSRAIFSVGPVSPSRRWWYRCYAYDSNSPYEWSLPSDLLELLVL")
"≤ 1000 nM"

For the next question, use this binder.
Please look up its Kd: SEQ ID NO 107 (receptor, mutated soluble two domain ILT-2) MGHLPKPTLWAEPGSVITMDQPVTLRCQGGQETQEYRLYREKKTAPWITRIPQELVKKGQFPIPSITWEHAGRYRCIGRSQTSQWSASSDPLELVVTGIYLAPTLSAQPSPVVNSGGNVTLQCDSQVAFDGFILCKEGEDEHPQCLNSQPHARGSSRAIFSVGPVSPSRRWWYRCYAYDSNSPYEWSLPSDLLELLVL
≤ 1000 nM
